tested on: 624824-186-R-J3-PDC multicell spheroids, viability; experiment: Anticancer human tumor 624824-186-R-J3-PDC patient-derived colon adenocarcinoma cell line growth inhibition [PI3K]; conditions: compound 10 µM; active = viability on the fitted dose curve at most 10% of control; inactive = the rest
Use one of these outcomes when replying: y = active, n = inactive

# count of solved cases: 5
* C#Cc1c(F)ccc2cc(O)cc(-c3ncc4c(N5CC6CCC(C5)N6)nc(OCC56CCCN5CC(F)C6)nc4c3F)c12 (centres undefined) | n
* CNC(=O)c1ccc(N2C(=S)N(c3ccc(C#N)c(C(F)(F)F)c3)C(=O)C2(C)C)cc1F | n
* CC1(C)CCC(Nc2ncc(C(F)(F)F)c(-c3c[nH]c4c(P(C)(C)=O)c(C#N)ccc34)n2)CN1 (centres undefined) | y
* Cn1nccc1Nc1nccc(-c2ccn(C(CO)c3ccc(Cl)c(F)c3)c(=O)c2)n1 (centres undefined) | n
* CC(Cn1ccc(-c2ccc(C#N)c(Cl)c2)n1)NC(=O)c1cc(C(C)O)[nH]n1 (centres undefined) | n

Incoming: // outcome(item) with item = CC(Nc1ncnc2nc[nH]c12)c1cc2cccc(Cl)c2c(=O)n1-c1ccccc1 (centres undefined)
Outgoing: n

Incoming: Next compound: CC(C)NCC(C(=O)N1CCN(c2ncnc3c2C(C)CC3O)CC1)c1ccc(Cl)cc1 (centres undefined)
Outgoing: n

Incoming: Same lookup for Cc1nc(NC(=O)N2CCCC2C(N)=O)sc1-c1ccnc(C(C)(C)C(F)(F)F)c1 (centres undefined) , please.
Outgoing: n

---

test system: 624824-186-R-J3-PDC multicell spheroids, viability; test: Anticancer human tumor 624824-186-R-J3-PDC cell line growth inhibition [PI3K]; details: second compound 0.316 µM; first compound 0.316 µM; stronger effect = lower value;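 also: spheroids exposed to agents for seven days before luminescence read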;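 as to viability, T/C: luminescent signal used as a stand-in for spheroid viability; percent viability relative to DMSO vehicle control wells taken as 100%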
Below, each entry is listed with its recorded viability, T/C.
Field format: number, assumed %, no unit text.

Incoming: For Cn1ncc(Cl)c1-c1cc(C(=O)NC(CN)Cc2cccc(F)c2)sc1Cl (stereo not given) + CC(Nc1ccc2c(c1)OCCn1cc(N3C(=O)OCC3C(F)F)nc1-2)C(N)=O , what is its reported viability, T/C?
Outgoing: 88.5

---

system: 624824-186-R-J3-PDC multicell spheroids, viability; experiment: Anticancer human tumor 624824-186-R-J3-PDC cell line growth inhibition [PI3K]; conditions: curve of first compound; second compound 1 µM;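 also: spheroids exposed to agents for seven days before luminescence read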
Reported values of IC50 for individual entries

• CCN1CCN(Cc2ccc(Nc3ncc(F)c(-c4cc(F)c5nc(C)n(C(C)C)c5c4)n3)nc2)CC1 + Cc1nc(NC(=O)N2CCCC2C(N)=O)sc1-c1ccnc(C(C)(C)C(F)(F)F)c1 = > 1000 nM
• CC1(C)CCC(Nc2ncc(C(F)(F)F)c(-c3c[nH]c4c(P(C)(C)=O)c(C#N)ccc34)n2)CN1 (stereo unspecified) + Cc1nc(NC(=O)N2CCCC2C(N)=O)sc1-c1ccnc(C(C)(C)C(F)(F)F)c1 = 4600 nM
• CC(C)n1nc(-c2ccc3oc(N)nc3c2)c2c(N)ncnc21 + CC(Nc1ncnc2nc[nH]c12)c1cc2cccc(Cl)c2c(=O)n1-c1ccccc1 = > 100 nM
• CNC(=O)c1ccc(N2C(=S)N(c3ccc(C#N)c(C(F)(F)F)c3)C(=O)C2(C)C)cc1F + COc1c(OCCCN2CCOCC2)ccc2c3n(c(=NC(=O)c4cnc(N)nc4)nc12)CCN3 = < 31.6 nM
• Cn1nccc1Nc1nccc(-c2ccn(C(CO)c3ccc(Cl)c(F)c3)c(=O)c2)n1 (stereo unspecified) + CC(Nc1ccc2c(c1)OCCn1cc(N3C(=O)OCC3C(F)F)nc1-2)C(N)=O = 341 nM
• CCCS(=O)(=O)Nc1ccc(F)c(C(=O)c2c[nH]c3ncc(-c4ccc(Cl)cc4)cc23)c1F + CC(Nc1ncnc2nc[nH]c12)c1cc2cccc(Cl)c2c(=O)n1-c1ccccc1 = 4800 nM
• Cn1ncc(Cl)c1-c1cc(C(=O)NC(CN)Cc2cccc(F)c2)sc1Cl (stereo unspecified) + COc1c(OCCCN2CCOCC2)ccc2c3n(c(=NC(=O)c4cnc(N)nc4)nc12)CCN3 = < 31.6 nM
• CCCS(=O)(=O)Nc1ccc(F)c(C(=O)c2c[nH]c3ncc(-c4ccc(Cl)cc4)cc23)c1F + Cc1nc(NC(=O)N2CCCC2C(N)=O)sc1-c1ccnc(C(C)(C)C(F)(F)F)c1 = 1990 nM
• CC(Cn1ccc(-c2ccc(C#N)c(Cl)c2)n1)NC(=O)c1cc(C(C)O)[nH]n1 (stereo unspecified) + COc1c(OCCCN2CCOCC2)ccc2c3n(c(=NC(=O)c4cnc(N)nc4)nc12)CCN3 = < 31.6 nM
• C[C@@H](NC(=O)c1ncnc(N)c1Cl)c1ncc(C(=O)Nc2cc(C(F)(F)F)c(Cl)cn2)s1 + Cc1nc(NC(=O)N2CCCC2C(N)=O)sc1-c1ccnc(C(C)(C)C(F)(F)F)c1 = > 10000 nM

Incoming: What does the record list as IC50 for CC1(C)CCC(Nc2ncc(C(F)(F)F)c(-c3c[nH]c4c(P(C)(C)=O)c(C#N)ccc34)n2)CN1 (stereo unspecified) + CC(Nc1ncnc2nc[nH]c12)c1cc2cccc(Cl)c2c(=O)n1-c1ccccc1 ?
Outgoing: 5190 nM

Incoming: // repeat for CCCS(=O)(=O)Nc1ccc(F)c(C(=O)c2c[nH]c3ncc(-c4ccc(Cl)cc4)cc23)c1F + COc1c(OCCCN2CCOCC2)ccc2c3n(c(=NC(=O)c4cnc(N)nc4)nc12)CCN3 and report
Outgoing: < 31.6 nM

Incoming: What would you report for CC(Cn1ccc(-c2ccc(C#N)c(Cl)c2)n1)NC(=O)c1cc(C(C)O)[nH]n1 (stereo unspecified) + CC(Nc1ccc2c(c1)OCCn1cc(N3C(=O)OCC3C(F)F)nc1-2)C(N)=O ?
Outgoing: > 10000 nM
